target: BuChE (Equus caballus, UniProt P81908); construct: electric eel, and horse serum were used as source of AChE and BuChE, respectively; from tissue; host or cells: horse serum; experiment: biochemical; type: biochemical; conditions: horse serum BuChE; Ellman's method; SEM of three experiments; read-out: BuChE IC50 (μM) ± SEM
Sequence (P81908 whole entry): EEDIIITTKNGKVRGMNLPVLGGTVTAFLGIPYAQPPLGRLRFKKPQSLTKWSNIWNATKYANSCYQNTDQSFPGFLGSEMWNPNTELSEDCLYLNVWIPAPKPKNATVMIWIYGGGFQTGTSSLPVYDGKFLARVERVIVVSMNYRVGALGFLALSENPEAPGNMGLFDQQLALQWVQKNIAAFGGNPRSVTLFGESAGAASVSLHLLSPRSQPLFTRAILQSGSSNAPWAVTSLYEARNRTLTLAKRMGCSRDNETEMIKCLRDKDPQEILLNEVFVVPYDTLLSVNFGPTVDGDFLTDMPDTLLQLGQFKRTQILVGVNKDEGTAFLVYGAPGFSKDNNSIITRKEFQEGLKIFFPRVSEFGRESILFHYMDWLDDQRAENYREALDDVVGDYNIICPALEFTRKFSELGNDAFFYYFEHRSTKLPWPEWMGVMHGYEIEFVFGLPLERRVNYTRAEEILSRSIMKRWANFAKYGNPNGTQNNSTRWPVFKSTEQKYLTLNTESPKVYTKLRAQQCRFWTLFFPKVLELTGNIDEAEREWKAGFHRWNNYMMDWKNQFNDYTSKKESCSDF
PARAMETER: log10(IC50) (log10 of the value in µM)
Note the log scale: values are log10 of IC50 expressed in µM.

In the examples that follow, each entry is paired with its recorded log10(IC50).
[
  {
    "COMPOUND": "O=c1oc2ccccc2cc1-c1nn(CNc2ccc(Cl)cc2)c(=S)o1 [Compound 11f]",
    "log10(IC50)": 1.08
  },
  {
    "COMPOUND": "COc1ccc(/C(C)=N/Nc2nc(-c3cc4ccccc4oc3=O)cs2)cc1I",
    "log10(IC50)": 1.51
  },
  {
    "COMPOUND": "CCCCNCn1nc(-c2cc3ccccc3oc2=O)oc1=S [Compound 11b]",
    "log10(IC50)": -0.11
  },
  {
    "COMPOUND": "CC(=NNc1nc(-c2cc3ccccc3oc2=O)cs1)c1cccc(N)c1",
    "log10(IC50)": 1.49
  }
]

// below: log10(IC50) requested for another compound
Recall the recorded log10(IC50) for Cc1ccc(NCn2nc(-c3cc4ccccc4oc3=O)oc2=S)cc1 [Compound 11c] with BuChE (Equus caballus, UniProt P81908) and state it. 0.90

---

target: AChE (Electrophorus electricus); construct: electric eel, and horse serum were used as source of AChE and BuChE, respectively; from tissue; host or cells: electric eel; assay: biochemical; assay type: biochemical; settings: electric eel AChE; Ellman's method; SEM of three experiments
// assign condition met if IC50 falls strictly below 10 µM, else condition not met (ties count as condition not met)

[
  {
    "MOLECULE": "C/C(=N\\Nc1nc(-c2cc3ccccc3oc2=O)cs1)c1ccccc1",
    "MEASURED TARGET": "AChE (Electrophorus electricus)",
    "GROUP": "condition not met"
  },
  {
    "MOLECULE": "C/C(=N\\Nc1nc(-c2cc3ccccc3oc2=O)cs1)c1ccccc1Br",
    "MEASURED TARGET": "AChE (Electrophorus electricus)",
    "GROUP": "condition not met"
  },
  {
    "MOLECULE": "C/C(=N\\Nc1nc(-c2cc3ccccc3oc2=O)cs1)c1cccc(Br)c1",
    "MEASURED TARGET": "AChE (Electrophorus electricus)",
    "GROUP": "condition not met"
  },
  {
    "MOLECULE": "O=c1oc2ccccc2cc1-c1nn(CNc2ccc(Cl)cc2)c(=S)o1 [Compound 11f]",
    "MEASURED TARGET": "AChE (Electrophorus electricus)",
    "GROUP": "condition not met"
  }
]

Is IC50 strictly under 10 µM for the entry Cc1ccc(NCn2nc(-c3cc4ccccc4oc3=O)oc2=S)cc1 [Compound 11c] ? condition not met

Repeat for the following molecule: CNCn1nc(-c2cc3ccccc3oc2=O)oc1=S [Compound 11a] condition met

---

biological target: BuChE (Equus caballus, UniProt P81908); construct: electric eel, and horse serum were used as source of AChE and BuChE, respectively; from tissue; host or cells: horse serum; assay: biochemical; type: biochemical; conditions: horse serum BuChE; Ellman's method; SEM of three experiments; read-out: BuChE IC50 (μM) ± SEM
Please respond with reported IC50 for every item in the list.
Answers are plain numbers, in µM.

[
  {
    "COMPOUND": "O=c1oc2ccccc2cc1-c1nn(CNc2cccc(Cl)c2)c(=S)o1 [Compound 11e]",
    "MEASURED TARGET": "BuChE (Equus caballus, UniProt P81908)",
    "MEASURED NUMBER": 0.15
  },
  {
    "COMPOUND": "O=c1oc2ccccc2cc1-c1nn(CNc2ccccc2Cl)c(=S)o1 [Compound 11d]",
    "MEASURED TARGET": "BuChE (Equus caballus, UniProt P81908)",
    "MEASURED NUMBER": 3.48
  },
  {
    "COMPOUND": "C/C(=N\\Nc1nc(-c2cc3ccccc3oc2=O)cs1)c1ccc(Cl)cc1N",
    "MEASURED TARGET": "BuChE (Equus caballus, UniProt P81908)",
    "MEASURED NUMBER": 37.2
  },
  {
    "COMPOUND": "C/C(=N\\Nc1nc(-c2cc3ccccc3oc2=O)cs1)c1ccccc1F",
    "MEASURED TARGET": "BuChE (Equus caballus, UniProt P81908)",
    "MEASURED NUMBER": 32.1
  },
  {
    "COMPOUND": "COc1ccc(/C(C)=N/Nc2nc(-c3cc4ccccc4oc3=O)cs2)cc1F",
    "MEASURED TARGET": "BuChE (Equus caballus, UniProt P81908)",
    "MEASURED NUMBER": 22.1
  },
  {
    "COMPOUND": "O=c1oc2ccccc2cc1-c1nn(CN(c2ccccc2)c2ccccc2)c(=S)o1 [Compound 11g]",
    "MEASURED TARGET": "BuChE (Equus caballus, UniProt P81908)",
    "MEASURED NUMBER": 4.54
  },
  {
    "COMPOUND": "C/C(=N\\Nc1nc(-c2cc3ccccc3oc2=O)cs1)c1ccccc1Br",
    "MEASURED TARGET": "BuChE (Equus caballus, UniProt P81908)",
    "MEASURED NUMBER": 19.3
  },
  {
    "COMPOUND": "O=c1oc2ccccc2cc1-c1csc(NN=C(c2ccccc2)c2ccccc2)n1",
    "MEASURED TARGET": "BuChE (Equus caballus, UniProt P81908)",
    "MEASURED NUMBER": 21.6
  }
]

Count: 2. Required value per item: IC50.
1. C/C(=N\Nc1nc(-c2cc3ccccc3oc2=O)cs1)c1cc2ccccc2oc1=O
2. COc1cc(C(C)=NNc2nc(-c3cc4ccccc4oc3=O)cs2)ccc1O

23.2
19.1

Count: 7. Required value per item: IC50.
1. CNCn1nc(-c2cc3ccccc3oc2=O)oc1=S [Compound 11a]
2. C/C(=N\Nc1nc(-c2cc3ccccc3oc2=O)cs1)c1cccc(Br)c1
3. COc1ccc(C(C)=NNc2nc(-c3cc4ccccc4oc3=O)cs2)cc1
4. COc1ccc(/C(C)=N/Nc2nc(-c3cc4ccccc4oc3=O)cs2)c(O)c1
5. O=c1oc2ccccc2cc1-c1nn(CN2CCOCC2)c(=S)o1 [Compound 11h]
6. C/C(=N\Nc1nc(-c2cc3ccccc3oc2=O)cs1)c1ccc(Br)cc1
7. C/C(=N\Nc1nc(-c2cc3ccccc3oc2=O)cs1)c1ccccc1

[0.341, 15.2, 19.3, 11, 13.5, 49.1, 32.7]

Consider the compound shown here: `C/C(=N\Nc1nc(-c2cc3ccccc3oc2=O)cs1)c1ccc(F)cc1` What is its recorded IC50? 28

---

Molecular target: AChE (Electrophorus electricus, UniProt O42275)
Construct: electric eel, and horse serum were used as source of AChE and BuChE, respectively; from tissue; host or cells: electric eel
Sequence (O42275 24-633): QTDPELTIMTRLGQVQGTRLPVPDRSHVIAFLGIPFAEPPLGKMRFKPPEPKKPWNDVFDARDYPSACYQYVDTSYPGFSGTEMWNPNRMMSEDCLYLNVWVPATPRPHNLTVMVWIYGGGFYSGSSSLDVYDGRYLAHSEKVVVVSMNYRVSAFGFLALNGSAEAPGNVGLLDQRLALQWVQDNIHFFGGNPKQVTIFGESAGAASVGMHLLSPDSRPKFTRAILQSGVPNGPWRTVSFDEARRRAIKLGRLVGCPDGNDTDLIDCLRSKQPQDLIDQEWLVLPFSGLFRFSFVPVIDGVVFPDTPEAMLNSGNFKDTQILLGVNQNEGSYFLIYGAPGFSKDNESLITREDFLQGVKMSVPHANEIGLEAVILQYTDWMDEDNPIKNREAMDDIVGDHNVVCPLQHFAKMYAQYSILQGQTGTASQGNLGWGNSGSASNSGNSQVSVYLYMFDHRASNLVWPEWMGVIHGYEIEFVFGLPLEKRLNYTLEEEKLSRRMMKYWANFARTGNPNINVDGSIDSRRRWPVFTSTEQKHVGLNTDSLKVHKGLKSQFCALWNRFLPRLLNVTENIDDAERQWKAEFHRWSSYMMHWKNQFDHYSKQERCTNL
Assay: biochemical
Format: biochemical
Details: ratio of IC50 values, BuChE over AChE
Method: The target compounds, coumarinyl thiazoles 6(a–o) and coumarinyl oxadiazoles 11(a–h), were screened for their inhibitory activity against AChE and BuChE by Ellman's method. For the determination of cholinesterase inhibition, electric eel, and horse serum were used as source of AChE and BuChE, respectively. […] The compounds with 1 Mm concentration were prepared in DMSO. Assay was carried out in 96 well-plate in triplicates. […]
Please respond with reported Selectivity for AChE for every item in the list.
One number for each entry.

In the examples that follow, each entry is paired with its recorded Selectivity for AChE.
[
  {
    "COMPOUND": "COc1ccc(/C(C)=N/Nc2nc(-c3cc4ccccc4oc3=O)cs2)c(O)c1 [Compound 6j]",
    "Selectivity for AChE": 1.22
  },
  {
    "COMPOUND": "C/C(=N\\Nc1nc(-c2cc3ccccc3oc2=O)cs1)c1ccccc1Br [Compound 6c]",
    "Selectivity for AChE": 0.91
  },
  {
    "COMPOUND": "C/C(=N\\Nc1nc(-c2cc3ccccc3oc2=O)cs1)c1ccc(Br)cc1 [Compound 6e]",
    "Selectivity for AChE": 1.47
  },
  {
    "COMPOUND": "COc1cc(C(C)=NNc2nc(-c3cc4ccccc4oc3=O)cs2)ccc1O [Compound 6k]",
    "Selectivity for AChE": 3.29
  },
  {
    "COMPOUND": "Cc1ccc(NCn2nc(-c3cc4ccccc4oc3=O)oc2=S)cc1 [Compound 11c]",
    "Selectivity for AChE": 0.33
  }
]

// below: Selectivity for AChE requested for another compound
Consider the compound shown here: C/C(=N\Nc1nc(-c2cc3ccccc3oc2=O)cs1)c1cccc(Br)c1 [Compound 6d] What is its recorded Selectivity for AChE? 0.50
